- Tested on: K. pneumoniae MP-648
- protocolSummary: Broth dilution MIC determination (CLSI), K. pneumoniae MP-648
- Type: cell-based
- assayConditions: Klebsiella pneumoniae, MP648; strain MP-648, broth dilution
propertyLabel: MIC

>  <compound>
CO[C@]1(C)C[C@@H](C)CN(C)[C@H](C2CCN(C(C)C)CC2)COC(=O)C(C)(C)C(=O)[C@H](C)[C@H]1O[C@@H]1O[C@H](C)C[C@H](N(C)C)[C@H]1O

>  <reportedValue>
< 4 µg/mL

$$$$
>  <compound>
CO[C@]1(C)C[C@@H](C)CN(C)[C@@H](C2CCN(C[C@H](CO)N(C)C)CC2)CO[C@@H](O)C(C)(C)C(=O)[C@H](C)[C@H]1O[C@@H]1O[C@H](C)C[C@H](N(C)C)[C@H]1O

>  <reportedValue>
> 32 µg/mL

$$$$
>  <compound>
CO[C@]1(C)C[C@@H](C)CN(C)[C@@H](C2(CCN(C)CC3CC3)CC2)COC(=O)C(C)(C)C(=O)[C@H](C)[C@H]1O[C@@H]1O[C@H](C)C[C@H](N(C)C)[C@H]1O

>  <reportedValue>
> 32 µg/mL

$$$$

Give MIC for each listed item.
1. CO[C@]1(C)C[C@@H](C)CN(C)[C@H](C2CN(C(=O)CNC(C)(C)C)C2)COC(=O)C(C)(C)C(=O)[C@H](C)[C@H]1O[C@@H]1O[C@H](C)C[C@H](N(C)C)[C@H]1O
2. CO[C@]1(C)C[C@@H](C)CN(C)[C@H](C2CN(Cc3ccn(C)n3)C2)COC(=O)C(C)(C)C(=O)[C@H](C)[C@H]1O[C@@H]1O[C@H](C)C[C@H](N(C)C)[C@H]1O
3. CO[C@]1(C)C[C@@H](C)CN(C)[C@H](C2CN(C(=O)[C@@H]3CCN(C)C3)C2)COC(=O)C(C)(C)C(=O)[C@H](C)[C@H]1O[C@@H]1O[C@H](C)C[C@H](N(C)C)[C@H]1O
4. CO[C@]1(C)C[C@@H](C)CN(C)[C@H](C2CN(CC(=O)O)C2)COC(=O)C(C)(C)C(=O)[C@H](C)[C@H]1O[C@@H]1O[C@H](C)C[C@H](N(C)C)[C@H]1O

-- reply
["4 to 32 µg/mL", "4 to 32 µg/mL", "4 to 32 µg/mL", "> 32 µg/mL"]
